Test system: Schistosoma mansoni adult schistosomes (49-day-old)
Assay: effect on adult schistosomes (49-day-old) in mice
Format: in vivo
Details: single 400 mg/kg per os
parameter: % reduction of adult worms growth at day 49 after per os application of 400 mg/kg, TWR (%)
Answers are plain numbers, in %.

In: Form field: % reduction of adult worms growth at day 49 after per os application of 400 mg/kg, TWR (%) recorded for O=C(OC[C@H]1CC[C@]2(CC1)OOC1(O2)C2CC3CC(C2)CC1C3)N1CCN(c2ccccc2)CC1 (stereo partly shown) with Schistosoma mansoni adult schistosomes (49-day-old) (enter value)
Out: 25

In: Form field: % reduction of adult worms growth at day 49 after per os application of 400 mg/kg, TWR (%) recorded for CC(=O)N1CCC2(CC1)OOC1(O2)C2CC3CC(C2)CC1C3 (stereo not shown) with Schistosoma mansoni adult schistosomes (49-day-old) (enter value)
Out: 17

In: Form field: % reduction of adult worms growth at day 49 after per os application of 400 mg/kg, TWR (%) recorded for CCS(=O)(=O)N1CCC2(CC1)OOC1(O2)C2CC3CC(C2)CC1C3 (stereo not shown) with Schistosoma mansoni adult schistosomes (49-day-old) (enter value)
Out: 4

In: Form field: % reduction of adult worms growth at day 49 after per os application of 400 mg/kg, TWR (%) recorded for O=C(O)C1CCC2(CC1)OOC1(O2)C2CC3CC(C2)CC1C3 (stereo not shown) with Schistosoma mansoni adult schistosomes (49-day-old) (enter value)
Out: 0

Consider the following items and state reported % reduction of adult worms growth at day 49 after per os application of 400 mg/kg, TWR (%) for each.
1. O=C(c1ccccc1)N1CCC2(CC1)OOC1(O2)C2CC3CC(C2)CC1C3 (stereo not shown)
2. O=C(O)CC[C@H]1CC[C@]2(CC1)OO[C@]1(O2)C2CC3CC(C2)CC1C3
3. O=C(O)C1CCN(C(=O)C[C@H]2CC[C@]3(CC2)OO[C@]2(O3)C3CC4CC(C3)CC2C4)CC1
4. C1COC2(CCC3(CC2)OOC2(O3)C3CC4CC(C3)CC2C4)O1 (stereo not shown)
5. O=C1CN(C(=O)C[C@H]2CC[C@]3(CC2)OO[C@]2(O3)C3CC4CC(C3)CC2C4)CCN1
6. NC(=O)CNC[C@H]1CC[C@]2(CC1)OOC1(O2)C2CC3CC(C2)CC1C3 (stereo partly shown)
7. O=C(CO)N1CCC2(CC1)OOC1(O2)C2CC3CC(C2)CC1C3 (stereo not shown)

Out:
[21, 16, 16, 28, 1, 10, 7]

---

Answer each item with its documented Survival (days) po.
System: ANKA strain of P. berghei
Assay: single dose STI in vivo screen in infected mice
Parameters: species or system Plasmodium berghei
Details: single 10 mg/kg po in 3% ethanol and 7% Tween 80; untreated control 5.6 ± 0.3
Numbers only, in days.

Here's what some known entries look like.
In: Fill in: Survival (days) po of CCOC(=O)CC1CCC2(CC1)OOC1(O2)C2CC3CC(C2)CC1C3 (stereo not drawn) [OZ61] is ___
Out: 7.0

In: Fill in: Survival (days) po of O=S(=O)(c1ccccc1)N1CCC2(CC1)OOC1(O2)C2CC3CC(C2)CC1C3 (stereo not drawn) [OZ60] is ___
Out: 6.0

Consider the following items and state reported Survival (days) po for each.
1. c1ccc2c(c1)OCCC21OOC2(O1)C1CC3CC(C1)CC2C3 (stereo not drawn) [OZ134]
2. OCCC1CCC2(CC1)OOC1(O2)C2CC3CC(C2)CC1C3 (stereo not drawn) [OZ89]

Out:
1: 6.3; 2: 7.3

---

System: ANKA strain of P. berghei
Test: single dose STI in vivo screen in infected mice
Parameters: species or system Plasmodium berghei
Conditions: single 10 mg/kg po in 3% ethanol and 7% Tween 80; untreated control 5.6 ± 0.3
parameter: Survival (days) po
Give bare numbers, in days.

Here's what some known entries look like.
In: Fill in: Survival (days) po of O=C(O)c1nccnc1C(=O)N1CCC2(CC1)OOC1(O2)C2CC3CC(C2)CC1C3 (centres unmarked) [OZ109] is ___
Out: 5.7

In: Fill in: Survival (days) po of CC(C)(O)C[C@H]1CC[C@]2(CC1)OOC1(O2)C2CC3CC(C2)CC1C3 (some centres unmarked) [OZ205] is ___
Out: 10.0

In: Fill in: Survival (days) po of O=C(NC[C@H]1CC[C@]2(CC1)OOC1(O2)C2CC3CC(C2)CC1C3)c1c[nH]cn1 (some centres unmarked) [OZ263] is ___
Out: 13.0

In: Fill in: Survival (days) po of O=C(O)CCC[C@H]1CC[C@]2(CC1)OOC1(O2)C2CC3CC(C2)CC1C3 (some centres unmarked) [OZ261] is ___
Out: 7.0

Consider the following items and state reported Survival (days) po for each.
1. Fc1ccc(C2CCC3(CC2)OOC2(O3)C3CC4CC(C3)CC2C4)cc1 (centres unmarked) [OZ41]
2. CC(=O)NC[C@H]1CC[C@]2(CC1)OOC1(O2)C2CC3CC(C2)CC1C3 (some centres unmarked) [OZ262]
3. COc1ccc(S(=O)(=O)N2CCC3(CC2)OOC2(O3)C3CC4CC(C3)CC2C4)cc1 (centres unmarked) [OZ59]
4. O=C(OC[C@H]1CC[C@]2(CC1)OOC1(O2)C2CC3CC(C2)CC1C3)n1ccnc1 (some centres unmarked) [OZ141]
5. O=C1CNC(=O)N1C[C@H]1CC[C@]2(CC1)OOC1(O2)C2CC3CC(C2)CC1C3 (some centres unmarked) [OZ206]

Out:
1. 12.1
2. 11.7
3. 6.0
4. 8.0
5. 8.0

---

Tested on: ANKA strain of P. berghei
Assay: single dose STI in vivo screen in infected mice
Set-up: species or system Plasmodium berghei
Settings: single 10 mg/kg sc in 3% ethanol and 7% Tween 80; untreated control 5.6 ± 0.3
Answer each item with its documented Survival (days) sc.

In: Fill in: Survival (days) sc of O=C(O)c1ccc(OC[C@H]2CC[C@]3(CC2)OOC2(O3)C3CC4CC(C3)CC2C4)cc1 (stereo partly drawn) is ___
Out: 7.0 days

In: Fill in: Survival (days) sc of CC(=O)OC1(c2ccc(F)cc2)CCC2(CC1)OOC1(O2)C2CC3CC(C2)CC1C3 (stereo not drawn) is ___
Out: 6.3/NA/6.3 days

Next molecule, please.
In: Fill in: Survival (days) sc of CONC(=O)C[C@H]1CC[C@]2(CC1)OOC1(O2)C2CC3CC(C2)CC1C3 (stereo partly drawn) is ___
Out: 8.0/8.0/8.0 days

---

Tested on: ANKA strain of P. berghei
Assay: single dose STI in vivo screen in infected mice
Set-up: species or system Plasmodium berghei
Settings: single 10 mg/kg po in 3% ethanol and 7% Tween 80; untreated control 5.6 ± 0.3
parameter: Survival (days) po
Give bare numbers, in days.

Consider the following items and state reported Survival (days) po for each.
1. O=C(NO)[C@H]1CC[C@@]2(CC1)OOC1(O2)C2CC3CC(C2)CC1C3 (stereo partly shown)
2. O=C(CO)N1CCC2(CC1)OOC1(O2)C2CC3CC(C2)CC1C3 (stereo not shown)

Out:
[7.0, 7.0]

In: Form field: Survival (days) po recorded for Fc1ccc(C2(c3ccc(F)cc3)OOC3(O2)C2CC4CC(C2)CC3C4)cc1 (stereo not shown) with ANKA strain of P. berghei (enter value)
Out: 7.0

---

Answer each item with its documented Survival (days) sc.
System: ANKA strain of P. berghei
Experiment: single dose STI in vivo screen in infected mice
Set-up: species or system Plasmodium berghei
Settings: single 10 mg/kg sc in 3% ethanol and 7% Tween 80; untreated control 5.6 ± 0.3

In: Fill in: Survival (days) sc of `C1CCC2(CC1)OOC1(CCCCC1)O2` is ___
Out: 5.3/NA/5.3^1 days

Consider the following items and state reported Survival (days) sc for each.
1. O=C(O)c1ccc(C2(c3ccc(C(=O)O)cc3)OOC3(O2)C2CC4CC(C2)CC3C4)cc1 (stereo not shown)
2. CCOC(=O)C1CCC2(CC1)OOC1(O2)C2CC3CC(C2)CC1C3 (stereo not shown)
3. O=C1CCC2(CC1)OOC1(CCCCC1)O2

Out:
1: 5.3/5.3/5.3 days; 2: 7.7/NA/7.7 days; 3: 5.0/NA/5.0^1 days

---

Test system: ANKA strain of P. berghei
Experiment: single dose STI in vivo screen in infected mice
Parameters: species or system Plasmodium berghei
Conditions: single 10 mg/kg po in 3% ethanol and 7% Tween 80; untreated control 5.6 ± 0.3
Answer each item with its documented Survival (days) po.
Answers are plain numbers, in days.

Here's what some known entries look like.
In: Fill in: Survival (days) po of O=S1(=O)CCC2(CC1)OOC1(O2)C2CC3CC(C2)CC1C3 (stereo not shown) [OZ50] is ___
Out: 7.0

In: Fill in: Survival (days) po of CC(=O)OC[C@H]1CC[C@]2(CC1)OOC1(O2)C2CC3CC(C2)CC1C3 (stereo partly shown) [OZ118] is ___
Out: 7.0

In: Fill in: Survival (days) po of COCC(=O)N1CCC2(CC1)OOC1(O2)C2CC3CC(C2)CC1C3 (stereo not shown) [OZ113] is ___
Out: 7.3

Consider the following items and state reported Survival (days) po for each.
1. O=C(Nc1ccccc1)N1CCC2(CC1)OOC1(O2)C2CC3CC(C2)CC1C3 (stereo not shown) [OZ102]
2. NC(=O)C(=O)NC[C@H]1CC[C@]2(CC1)OOC1(O2)C2CC3CC(C2)CC1C3 (stereo partly shown) [OZ268]
3. CCOC(=O)N1C2CCC1CC1(C2)OOC2(O1)C1CC3CC(C1)CC2C3 (stereo not shown) [OZ110]
4. O=C(NC[C@H]1CC[C@]2(CC1)OOC1(O2)C2CC3CC(C2)CC1C3)c1cccc[n+]1[O-] (stereo partly shown) [OZ270]
5. c1ccc(C2CCC3(CC2)OOC2(CCC(c4ccccc4)CC2)O3)cc1 (stereo not shown) [OZ62]
6. CN(C)C(=O)NC[C@H]1CC[C@]2(CC1)OOC1(O2)C2CC3CC(C2)CC1C3 (stereo partly shown) [OZ266]
7. C(CNC1CCC2(CC1)OOC1(O2)C2CC3CC(C2)CC1C3)CN1CCOCC1 (stereo not shown) [OZ161]
8. O=[N+]([O-])c1ccc(N2CCC3(CC2)OOC2(O3)C3CC4CC(C3)CC2C4)cc1 (stereo not shown) [OZ151]

Out:
[7.0, 9.3, 6.7, 13.7, 6.0, 13.7, 7.0, 7.3]

Consider the following items and state reported Survival (days) po for each.
1. C1C2CC3CC1CC(C2)C31OO[C@]2(CC[C@@H](CN(C[C@H]3CC[C@]4(CC3)OOC3(O4)C4CC5CC(C4)CC3C5)C3CC3)CC2)O1 (stereo partly shown) [OZ254]
2. N=C(N)N1CCC2(CC1)OOC1(O2)C2CC3CC(C2)CC1C3 (stereo not shown) [OZ191]
3. CCN(CC)CC[C@H]1CC[C@]2(CC1)OOC1(O2)C2CC3CC(C2)CC1C3 (stereo partly shown) [OZ126]

Out:
[6.0, 5.7, 7.0]
